Biological target: adenosine 1 receptor (Homo sapiens, UniProt P30542)
Construct: expressed in transfected cells; host or cells: CHO cells
Sequence (P30542 whole entry): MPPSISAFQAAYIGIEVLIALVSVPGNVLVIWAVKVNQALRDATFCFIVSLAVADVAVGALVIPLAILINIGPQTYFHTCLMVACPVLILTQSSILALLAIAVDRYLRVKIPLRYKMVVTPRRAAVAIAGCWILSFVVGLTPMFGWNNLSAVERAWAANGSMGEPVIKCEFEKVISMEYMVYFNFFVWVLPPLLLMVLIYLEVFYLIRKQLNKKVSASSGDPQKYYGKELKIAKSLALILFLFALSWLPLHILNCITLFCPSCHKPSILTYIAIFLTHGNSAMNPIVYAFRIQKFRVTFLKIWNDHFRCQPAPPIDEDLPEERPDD
Assay: Agonist activity, CHO cells transfected with human adenosine receptor and CRE-SPAP reporter; forskolin-enhanced cAMP (A1)
Format: cell-based
Conditions: ratio to NECA; * data are minimum values since preparation was found, after testing, to contain an inactive impurity
So I've got a bunch of molecules here, and I need their A1, EC50 as a ratio of that of NECA values.
Lab note: record the figure alone, no unit after it.

Look up A1, EC50 as a ratio of that of NECA with adenosine 1 receptor (Homo sapiens, UniProt P30542) for this molecule: Cc1noc(C2OC(n3cnc4c(N)nc(NCCc5ccccn5)nc43)C(O)C2O)n1.O=CO.O=CO (stereo not shown) [Example 30] 1460.7

Query A1, EC50 as a ratio of that of NECA on adenosine 1 receptor (Homo sapiens, UniProt P30542) for CCc1noc(C2OC(n3cnc4c(NCC(c5ccccc5)c5ccccc5)nc(NC5CCNC5)nc43)C(O)C2O)n1 (stereo not shown) [Example 3] 6719

---

For each record, write down the corresponding A1, EC50 as a ratio of that of NECA.
Target: adenosine 1 receptor (Homo sapiens, UniProt P30542)
Construct: expressed in transfected cells; host or cells: CHO cells
Assay: Agonist activity, CHO cells transfected with human adenosine receptor and CRE-SPAP reporter; forskolin-enhanced cAMP (A1)
Format: cell-based
Conditions: ratio to NECA; * data are minimum values since preparation was found, after testing, to contain an inactive impurity

What value of measured A1, EC50 as a ratio of that of NECA is listed for Cc1noc([C@H]2O[C@@H](n3cnc4c(N)nc(NCCc5cn(C)cn5)nc43)[C@H](O)[C@@H]2O)n1.O=C(O)C(F)(F)F.O=C(O)C(F)(F)F [Example 7] ? 1013.4

Item under review: CCC(CC)Nc1nc(NCCN2CCOCC2)nc2c1ncn2[C@@H]1O[C@H](c2nc(C)no2)[C@@H](O)[C@H]1O.O=CO [Example 6] . Reported A1, EC50 as a ratio of that of NECA? >4833

---

Molecular target: adenosine 2a receptor (Homo sapiens, UniProt P29274)
Construct: expressed in transfected cells; host or cells: CHO cells
Sequence (P29274 whole entry): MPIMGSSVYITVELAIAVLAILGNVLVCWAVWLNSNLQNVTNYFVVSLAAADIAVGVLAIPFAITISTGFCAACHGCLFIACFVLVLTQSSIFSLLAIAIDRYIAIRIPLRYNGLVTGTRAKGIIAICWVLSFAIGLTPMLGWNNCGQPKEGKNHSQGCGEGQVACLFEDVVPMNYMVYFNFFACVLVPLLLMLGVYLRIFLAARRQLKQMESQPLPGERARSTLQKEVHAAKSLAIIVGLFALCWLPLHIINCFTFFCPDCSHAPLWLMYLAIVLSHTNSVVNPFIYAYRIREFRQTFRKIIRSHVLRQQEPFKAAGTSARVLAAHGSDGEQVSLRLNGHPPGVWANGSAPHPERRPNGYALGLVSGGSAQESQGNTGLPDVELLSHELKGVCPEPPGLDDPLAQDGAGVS
Assay: Agonist activity, CHO cells transfected with human adenosine receptor and CRE-SPAP reporter; basal cAMP (A2a)
Type: cell-based
Details: ratio to NECA; CHO cells, SPAP readout
QUANTITY KIND: A2a, EC50 as a ratio of that of NECA
// response body must contain only the number

I'd like to know its A2a, EC50 as a ratio of that of NECA. The molecule in question is CCC(CC)Nc1nc(N[C@H]2CCC[C@@H]2O)nc2c1ncn2[C@@H]1O[C@H](c2nc(C)no2)[C@@H](O)[C@H]1O.O=CO 18.13

What does the data say about its A2a, EC50 as a ratio of that of NECA? Entry: CCC(CC)Nc1nc(NCCN2CCCCC2)nc2c1ncn2C1OC(c2nc(C3CC3)no2)C(O)C1O (centres unmarked) 7.89

Given the entry CCC(CC)Nc1nc(NCCN2CCOCC2)nc2c1ncn2C1OC(c2nc(C3CC3)no2)C(O)C1O.O=CO.O=CO (centres unmarked) , report its measured A2a, EC50 as a ratio of that of NECA. 20.13

I have this molecule here, CCc1noc([C@H]2O[C@@H](n3cnc4c(NCC(c5ccccc5)c5ccccc5)nc(NC5CC6CCC5C6)nc43)[C@H](O)[C@@H]2O)n1.O=CO (some centres unmarked) , and I need its recorded A2a, EC50 as a ratio of that of NECA. 23.93

Record request: A2a, EC50 as a ratio of that of NECA value, item Cc1noc([C@H]2O[C@@H](n3cnc4c(N)nc(NCCc5ccccc5)nc43)[C@H](O)[C@@H]2O)n1.O=C(O)C(F)(F)F 2.29

# query: A2a, EC50 as a ratio of that of NECA of entry CCc1noc([C@H]2O[C@@H](n3cnc4c(NC(CC)CC)nc(NCCc5cn(C)cn5)nc43)[C@H](O)[C@@H]2O)n1.O=CO 0.61

Which A2a, EC50 as a ratio of that of NECA reading was recorded for the molecule CCc1noc([C@H]2O[C@@H](n3cnc4c(NCC(c5ccccc5)c5ccccc5)nc(NCCN5CCOCC5)nc43)[C@H](O)[C@@H]2O)n1.O=CO ? 30.6

Return reported A2a, EC50 as a ratio of that of NECA; argument: CCc1noc(C2OC(n3cnc4c(NCCC5CCCCC5)nc(NCCc5cn(C)cn5)nc43)C(O)C2O)n1.O=CO.O=CO (centres unmarked) 6.93

---

Target: adenosine 2a receptor (Homo sapiens)
Construct: expressed in transfected cells; host or cells: CHO cells
Test: Agonist activity, CHO cells transfected with human adenosine receptor and CRE-SPAP reporter; basal cAMP (A2a)
Format: cell-based
Conditions: ratio to NECA; * data are minimum values since preparation was found, after testing, to contain an inactive impurity
QUANTITY KIND: A2a, EC50 as a ratio of that of NECA
Lab note: jot down the number only; don't add units.

GET /values?readout=A2a, EC50 as a ratio of that of NECA&item= Cc1noc([C@H]2O[C@@H](n3cnc4c(N)nc(NCCc5cn(C)cn5)nc43)[C@H](O)[C@@H]2O)n1.O=C(O)C(F)(F)F.O=C(O)C(F)(F)F 11.02

I am curious: what A2a, EC50 as a ratio of that of NECA value has been reported for Cc1noc(C2OC(n3cnc4c(NCC(c5ccccc5)c5ccccc5)nc(NCCc5c[nH]cn5)nc43)C(O)C2O)n1 (stereo not shown) ? 8.31

Find the recorded A2a, EC50 as a ratio of that of NECA belonging to CCCc1noc([C@H]2O[C@@H](n3cnc4c(NCC(c5ccccc5)c5ccccc5)nc(NCCc5cn(C)cn5)nc43)[C@H](O)[C@@H]2O)n1.O=CO and report it. 8.35

Using the record for CCc1noc(C2OC(n3cnc4c(N)nc(NCCc5cn(C)cn5)nc43)C(O)C2O)n1 (stereo not shown) , report its A2a, EC50 as a ratio of that of NECA. 7.66

Which measured A2a, EC50 as a ratio of that of NECA value corresponds to CCc1noc(C2OC(n3cnc4c(N)nc(NCCc5ccccn5)nc43)C(O)C2O)n1.O=CO.O=CO (stereo not shown) ? 14.05

Fill in the blank: the reported A2a, EC50 as a ratio of that of NECA of CCc1noc([C@H]2O[C@@H](n3cnc4c(NC(CC)CC)nc(N[C@H]5CC[C@H](N)CC5)nc43)[C@H](O)[C@@H]2O)n1.O=CO is ____. 8.92

Name the recorded A2a, EC50 as a ratio of that of NECA for Cc1noc([C@H]2O[C@@H](n3cnc4c(N)nc(NC5CCCC5)nc43)[C@H](O)[C@@H]2O)n1.O=CO . 6.66

---

Molecular target: adenosine 3 receptor (Homo sapiens, UniProt P0DMS8)
Construct: expressed in transfected cells; host or cells: CHO cells
Assay: Agonist activity, CHO cells transfected with human adenosine receptor and CRE-SPAP reporter; forskolin-enhanced cAMP (A3)
Format: cell-based
Settings: ratio to NECA; CHO cells, SPAP readout
QUANTITY KIND: A3, EC50 as a ratio of that of NECA

Which A3, EC50 as a ratio of that of NECA value is on record for CCC(CC)Nc1nc(NC2CCCC2)nc2c1ncn2[C@@H]1O[C@H](c2nc(C)no2)[C@@H](O)[C@H]1O.O=CO ? >193

Quick check: A3, EC50 as a ratio of that of NECA of CCc1noc([C@H]2O[C@@H](n3cnc4c(NC(CC)CC)nc(N[C@H]5CCC[C@@H]5O)nc43)[C@H](O)[C@@H]2O)n1.O=CO ? >163

Sample CCc1noc([C@H]2O[C@@H](n3cnc4c(NCC(c5ccccc5)c5ccccc5)nc(NC5CC6CCC5C6)nc43)[C@H](O)[C@@H]2O)n1.O=CO (stereo partly drawn) — what was its A3, EC50 as a ratio of that of NECA? >130

---

Task for the reader: assign each of the following molecules its reported A3, EC50 as a ratio of that of NECA.
Target: adenosine 3 receptor (Homo sapiens)
Construct: expressed in transfected cells; host or cells: CHO cells
Sequence (P0DMS8 1-318): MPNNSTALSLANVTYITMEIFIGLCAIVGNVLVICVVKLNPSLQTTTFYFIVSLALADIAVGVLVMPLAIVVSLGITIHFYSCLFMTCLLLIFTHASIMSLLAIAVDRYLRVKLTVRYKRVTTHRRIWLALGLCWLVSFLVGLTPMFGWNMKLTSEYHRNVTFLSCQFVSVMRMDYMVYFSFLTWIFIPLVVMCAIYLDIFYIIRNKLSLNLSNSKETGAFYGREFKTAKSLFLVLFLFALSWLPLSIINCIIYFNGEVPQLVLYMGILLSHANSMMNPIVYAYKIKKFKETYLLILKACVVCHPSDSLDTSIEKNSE
Experiment: Agonist activity, CHO cells transfected with human adenosine receptor and CRE-SPAP reporter; forskolin-enhanced cAMP (A3)
Format: cell-based
Settings: ratio to NECA; CHO cells, SPAP readout

Request the reported A3, EC50 as a ratio of that of NECA associated with CCc1noc(C2OC(n3cnc4c(NCC(c5ccccc5)c5ccccc5)nc(NC(CO)C(C)C)nc43)C(O)C2O)n1 (stereo not drawn) >309

What does the data say about its A3, EC50 as a ratio of that of NECA? Entry: CCC(CC)Nc1nc(NCCN2CCOCC2)nc2c1ncn2C1OC(c2nc(C3CC3)no2)C(O)C1O.O=CO.O=CO (stereo not drawn) >194

Entry CCc1noc([C@H]2O[C@@H](n3cnc4c(NCC(c5ccccc5)c5ccccc5)nc(NCCN5CCOCC5)nc43)[C@H](O)[C@@H]2O)n1.O=CO has what A3, EC50 as a ratio of that of NECA? >262

If you can, please state the reported A3, EC50 as a ratio of that of NECA value of CCC(CC)Nc1nc(NCCc2cn(C)cn2)nc2c1ncn2[C@@H]1O[C@H](c2nc(C)no2)[C@@H](O)[C@H]1O.O=CO . >239

Would you kindly share the measured A3, EC50 as a ratio of that of NECA for CCc1noc([C@H]2O[C@@H](n3cnc4c(NCC(c5ccccc5)c5ccccc5)nc(NCCc5ccc(OC)c(OC)c5)nc43)[C@H](O)[C@@H]2O)n1.O=CO ? >130

Name the reported A3, EC50 as a ratio of that of NECA value associated with the molecule CCC(CC)Nc1nc(NCCc2ccccn2)nc2c1ncn2[C@@H]1O[C@H](c2nc(C3CC3)no2)[C@@H](O)[C@H]1O.O=CO.O=CO >87
